# studySystem: Tyrosyl-tRNA synthetase, putative (Trypanosoma cruzi (strain CL Brener))
# assayOverview: Trypanosoma cruzi tyrosyl tRNA synthetase (TcYRS) SOP
# Type: functional
# Design: scale not given: direction of the effect not stated beside the values
# experimentalConditions: 30 µM
Consider the following compounds and their measured Percent Effect readings.
Entry rule: numbers only, all in %.

| compound | Percent Effect (%) |
| --- | --- |
| Cc1nc(C)n(CC2CCCN2CC(=O)Nc2cc(C(C)C)no2)n1 (configuration not stated) | 16.1 |

Asked: Name the recorded Percent Effect for COCCn1ccc(=O)c(OCC(=O)Nc2ccccc2)c1C .
Given back: 20.5

Asked: Again, but for O=C(CCCc1ncc(-c2ccccc2)o1)N1CCN(CCO)CC1
Given back: 13.9

Asked: Cool, now CS(=O)(=O)N1Cc2nccn2CC(Cn2ncccc2=O)C1 (configuration not stated)
Given back: 12.5

Asked: Same read-out for O=C([C@H]1CN(CCc2ccccc2)C[C@H]2OCC[C@@H]12)N1CCCO1 ?
Given back: 15

Asked: Could you do the same for Cc1nc(CN2CCCCC2Cn2cncn2)nc2ccccc12 (configuration not stated) , please?
Given back: 23.5

Asked: Also check COCC1CN(C(=O)c2cccn2C)Cc2nccn2C1 (configuration not stated)
Given back: 11.5

Asked: Lookup c1cnn(CC2CCCN2c2ncnc3sccc23)c1 (configuration not stated)
Given back: -25.6

Asked: And what about the compound CCn1nc(CNC(=O)C2CC(=O)N(C3CCCC3)C2)c2ccccc21 (configuration not stated) ?
Given back: 2.44

Asked: // query: O=C(Cn1cnc(-c2ccccc2)cc1=O)Nc1ccncc1
Given back: 16.7

Asked: Consider next the compound COCC1CN(Cc2ccc(C)o2)Cc2cn(C)nc21 (configuration not stated) in the same way.
Given back: 20

Asked: Next compound up: CCCC(C)CN1CCC(n2cc(C3CCCC3)nn2)CC1 (configuration not stated)
Given back: 11.1
